# Test system: RXF 393 renal
# assayOverview: NCI tumour cell line growth inhibition, 48 h; in the data active = GI50 below about 0.43 µM; inactive = the rest
In this exercise, the only acceptable responses are Y for active, N for inactive

See these solved cases before continuing.
molecule=COc1ccc(-c2nc(N3CCN(C(=O)C4CCCCC4)CC3)c3c4c(sc3n2)CCCC4)cc1 assaytarget="RXF 393 renal" qualitativelabel=N
molecule=COc1ccc(CNc2nc3cc(N)cc(N)c3nc2-c2ccccc2)cc1 assaytarget="RXF 393 renal" qualitativelabel=N
molecule=CCC[CH2][Sn]1([CH2]CCC)[O]C(=O)c2ccc(C)cc2[O]1 assaytarget="RXF 393 renal" qualitativelabel=Y

query: Hi team, can someone confirm the assay call for COc1cc(O)c2c(c1)C(=O)c1cc3c(c(O)c1C2=O)C(OC1OC(C)C(O)C(O)C1OC)C(OC)C(C)(O)C3=O (stereo not drawn) ?
result: N

query: Hi team, can someone confirm the assay call for `COc1ccc(-c2cc(-c3ccc(O)cc3)nc3n[nH]c(N)c23)cc1` ?
result: N

query: Hi team, can someone confirm the assay call for COC(=O)[C@H](Cc1ccc(O)cc1)NC(=O)[C@@H](OC)[C@@H]1Cc2cc3cc(OC4CC(OC5CC(O)C(O)C(C)O5)C(O)C(C)O4)c(C)c(O)c3c(O)c2C(=O)[C@H]1OC1CC(OC2CC(OC3CC(C)(O)C(O)C(C)O3)C(O)C(C)O2)C(O)C(C)O1 (stereo partly drawn) ?
result: Y

query: Hi team, can someone confirm the assay call for `Cc1cc(O)cc(C)c1/C=C/c1cncc(-c2nn[nH]n2)c1` ?
result: N

query: Hi team, can someone confirm the assay call for `CNC(=O)Oc1cc(C)c(/C=C/c2cncc(C(=O)NC)c2)c(C)c1` ?
result: N
